Measured values drawn from PubChem BioAssay AID1159580 for this set.

Would you mind telling me the reported normalized growth of each entry?
# Test name: chemical genetic growth profiling, strain panel (AID 1159580);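 further: tested at 20 µM; growth read once vehicle control cultures reached saturation at 30 °C; 1 = growth at the plate median or of vehicle wells; lower values mean less growth of the strain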
# Cond: S. cerevisiae deletion strains, growth OD, locus YJL115W, strain asf1, stronger effect = lower value
Out of some 5,500 compounds screened, about 2,000 (36%) were called active. About 18% were inconclusive and are not listed. The list shows a part of the results.
One number for each entry.

>  <Compound>
CC(C)NCC(O)COc1ccc(COCCOC(C)C)cc1 (stereo not drawn)

>  <normalized growth>
0.999

$$$$
>  <Compound>
CC(CCC(=O)O)[C@H]1CCC2C3C(=O)C[C@@H]4CC(=O)CC[C@]4(C)C3CC(=O)[C@@]21C (stereo partly drawn)

>  <normalized growth>
0.991

$$$$
>  <Compound>
CCCOc1ccc2nc(NC(=O)OC)[nH]c2c1

>  <normalized growth>
1

$$$$
>  <Compound>
O=C(O)c1cccnc1

>  <normalized growth>
0.973

$$$$
>  <Compound>
O=C(NCO)c1cccnc1

>  <normalized growth>
1

$$$$

Value sought for every listed compound: normalized growth.
1. Cc1scc2c1N(C(=O)CN1CCN(C)CC1)c1ccccc1NC2=O
2. NC(=O)c1cccnc1
3. Oc1cccc(O)c1
4. Cc1nc(N)cc(C[n+]2csc(CCO)c2C)n1
5. Nc1ccc(S(=O)(=O)NC(=O)c2ccccc2)cc1
6. C[C@H](CCC(=O)O)[C@H]1CCC2C3C(=O)CC4CC(=O)CC[C@]4(C)C3CC(=O)[C@@]21C (stereo partly drawn)

Solution:
[0.952, 0.96, 0.978, 0.969, 0.999, 0.978]

Value sought for every listed compound: normalized growth.
1. CCCN(CCC)S(=O)(=O)c1ccc(C(=O)O)cc1
2. O=P1(NCCCl)OCCCN1CCCl (stereo not drawn)

Solution:
0.989
0.971
